Tested on: SNB-75
Experiment: cells
Parameters: species or system NCI human tumour cell line panel; NCI one-dose anti-proliferative screen, human tumour cell line panel, growth inhibition percent (GI%)
Conditions: Homo sapiens, SNB-75; growth inhibition (GI%), single dose
ATTRIBUTE_MEASURED: inhibition at 10 µM (%)

> print(dat)
                               entry.smiles  numeric.value
1  CN(C)c1ccc(-c2nc3c(nnn3-c3ccc(S(N)(=O)=O)cc3)c(N)c2C#N)cc1           21.6
2  N#Cc1nnn(-c2ccc(S(N)(=O)=O)cc2)c1/N=C/c1ccc(Cl)cc1            2.9
3  CCn1c(=S)[nH]c2c(nnn2-c2ccc(S(N)(=O)=O)cc2)c1=N            3.3
4  N#Cc1nnn(-c2ccc(S(N)(=O)=O)cc2)c1NS(=O)(=O)c1ccccc1           10.2
5  N#Cc1nnn(-c2ccc(S(N)(=O)=O)cc2)c1NCC(=O)c1ccccc1           20.1
6  Nc1nc(=S)[nH]c2c1nnn2-c1ccc(S(N)(=O)=O)cc1           13.9
7        N#Cc1nnn(-c2ccc(S(N)(=O)=O)cc2)c1N             15
8  N#Cc1c(-c2ccc(Cl)cc2)nc2c(nnn2-c2ccc(S(N)(=O)=O)cc2)c1N             20

----------
Tested on: MOLT-4
Assay: cells
Set-up: species or system NCI human tumour cell line panel; NCI one-dose anti-proliferative screen, human tumour cell line panel, growth inhibition percent (GI%)
Conditions: Homo sapiens, MOLT-4; growth inhibition (GI%), single dose
inhibition at 10 µM below 10% gives -1; inhibition at 10 µM at or above it gives 1.

> print(dat)
                                   compound  tested.on  assigned.class
1  CCn1c(=S)[nH]c2c(nnn2-c2ccc(S(N)(=O)=O)cc2)c1=N [compound 20]     MOLT-4              -1
2  N#Cc1nnn(-c2ccc(S(N)(=O)=O)cc2)c1/N=C/c1ccc(Cl)cc1 [compound 9, 9]     MOLT-4              -1
3  N#Cc1nnn(-c2ccc(S(N)(=O)=O)cc2)c1N [compound 3, 3]     MOLT-4               1
4  N#Cc1nnn(-c2ccc(S(N)(=O)=O)cc2)c1NS(=O)(=O)c1ccccc1 [compound 11]     MOLT-4               1
5  Nc1nc(=S)[nH]c2c1nnn2-c1ccc(S(N)(=O)=O)cc1 [compound 18]     MOLT-4               1
6  N#Cc1c(-c2ccc(Cl)cc2)nc2c(nnn2-c2ccc(S(N)(=O)=O)cc2)c1N [compound 16]     MOLT-4               1
7  CN(C)c1ccc(-c2nc3c(nnn3-c3ccc(S(N)(=O)=O)cc3)c(N)c2C#N)cc1 [compound 17]     MOLT-4              -1

----------
Test system: CCRF-CEM
Assay: cells
Parameters: species or system NCI human tumour cell line panel; NCI one-dose anti-proliferative screen, human tumour cell line panel, growth inhibition percent (GI%)
Conditions: Homo sapiens, CCRF-CEM; growth inhibition (GI%), single dose
inhibition at 10 µM values, listed per item
ATTRIBUTE_MEASURED: inhibition at 10 µM (%)

> print(dat)
                               entry.smiles  value.units  numeric.value
1  N#Cc1c(-c2ccc(Cl)cc2)nc2c(nnn2-c2ccc(S(N)(=O)=O)cc2)c1N            %           16.4
2  N#Cc1nnn(-c2ccc(S(N)(=O)=O)cc2)c1NS(=O)(=O)c1ccccc1            %            6.7
3  N#Cc1nnn(-c2ccc(S(N)(=O)=O)cc2)c1NCC(=O)c1ccccc1            %           16.4
4  Nc1nc(=S)[nH]c2c1nnn2-c1ccc(S(N)(=O)=O)cc1            %           17.8
5        N#Cc1nnn(-c2ccc(S(N)(=O)=O)cc2)c1N            %           15.3
6  N#Cc1nnn(-c2ccc(S(N)(=O)=O)cc2)c1/N=C/c1ccc(Cl)cc1            %           15.9
7  CCn1c(=S)[nH]c2c(nnn2-c2ccc(S(N)(=O)=O)cc2)c1=N            %           20.9
8  CN(C)c1ccc(-c2nc3c(nnn3-c3ccc(S(N)(=O)=O)cc3)c(N)c2C#N)cc1            %           11.4
